- ASSAY TARGET: T1, mouse serum albumin (mouse, UniProt P07724 25-608)
- T1 construct: Bought protein, immobilized on a CM5 chip by amine coupling; also called Mouse SA
- TEST DESCRIPTION: SPR (Biacore 8K), albumin immobilized on CM5 chip, 25 C, 1:1 kinetic fit
Property: Kd; scope: individual binders
Field format: number, assumed nM, no unit text.

[[record]]
binder = "RLN Analog 7 (other, Single-chain fusion: VHH - (G4Q)5 L1 - RLN2 B chain (desB1) - L2 - RLN2 A chain) EVQLLESGGGLVQPGGSLRLSCAASGRYIDETAVAWFRQAPGKGREFVAGIGGGVDITYYADSVKGRFTISRDNSKNTLYLQMNSLRPEDTAVYYCAARPGRPLITSKVADLYPYWGQGTLVTVSSGGGGQGGGGQGGGGQGGGGQGGGGQSWMEEVIKLCGRELVRAQIAICGMSTWSGGGSGGSGGGQLYSALANKCCHVGCTKRSLARFC"
units_symbol = "nM"
readout_number = 2.1

[[record]]
binder = "RLN Analog 1 (other) EVQLLESGGGLVQPGGSLRLSCAASGRYIDETAVAWFRQAPGKEREFVAGIGGGVDITYYADSVKGRFTISRDNSKNTLYLQMNSLRPEDTAVYYCAARPGRPLITSKVADLYPYWGQGTLVTVSSGGGGQGGGGQGGGGQGGGGQGGGGQQLYSALANKCCHVGCTKRSLARFCGGGSGGSGGGSWMEEVIKLCGRELVRAQIAICGMSTWS"
units_symbol = "nM"
readout_number = 3.3

[[record]]
binder = "RLN Analog 13 (other, Single-chain fusion: VHH - (G4Q)5 L1 - RLN2 A chain (desA1-4) - L2 - RLN2 B chain (desB1)) EVQLLESGGGLVQPGGSLRLSCAASGRYIDETAVAWFRQAPGKGREFVAGIGGGVDITYYADSVKGRFTISRDNSKNTLYLQMNSLRPEDTAVYYCAARPGRPLITSKVADLYPYWGQGTLVTVSSGGGGQGGGGQGGGGQGGGGQGGGGQALANKCCHVGCTKRSLARFCGGGSGGSGGGSWMEEVIKLCGRELVRAQIAICGMSTWS"
units_symbol = "nM"
readout_number = 2.6

[[record]]
binder = "RLN Analog 4 (other, Single-chain fusion: VHH - (PGPQ)8 L1 - RLN2 B chain (desB1) - L2 - RLN2 A chain) EVQLLESGGGLVQPGGSLRLSCAASGRYIDETAVAWFRQAPGKEREFVAGIGGGVDITYYADSVKGRFTISRDNSKNTLYLQMNSLRPEDTAVYYCAARPGRPLITSKVADLYPYWGQGTLVTVSSPGPQPGPQPGPQPGPQPGPQPGPQPGPQPGPQSWMEEVIKLCGRELVRAQIAICGMSTWSGGGSGGSGGGQLYSALANKCCHVGCTKRSLARFC"
units_symbol = "nM"
readout_number = 3

[[record]]
binder = "RLN Analog 10 (other, Single-chain fusion: RLN2 B chain (desB1) - L2 - RLN2 A chain - (PGPQ)8 L1 - VHH (C-terminal)) SWMEEVIKLCGRELVRAQIAICGMSTWSGGGSGGSGGGQLYSALANKCCHVGCTKRSLARFCPGPQPGPQPGPQPGPQPGPQPGPQPGPQPGPQEVQLLESGGGLVQPGGSLRLSCAASGRYIDETAVAWFRQAPGKGREFVAGIGGGVDITYYADSVKGRFTISRDNSKNTLYLQMNSLRPEDTAVYYCAARPGRPLITSKVADLYPYWGQGTLVTVSSPP"
units_symbol = "nM"
readout_number = 9.7


Okay, now this binder:
QUERY: Which Kd is reported for this binder? RLN Analog 5 (other, Single-chain fusion: RLN2 B chain (desB1) - L2 - RLN2 A chain - (G4Q)5 L1 - VHH (C-terminal)) SWMEEVIKLCGRELVRAQIAICGMSTWSGGGSGGSGGGQLYSALANKCCHVGCTKRSLARFCGGGGQGGGGQGGGGQGGGGQGGGGQEVQLLESGGGLVQPGGSLRLSCAASGRYIDETAVAWFRQAPGKEREFVAGIGGGVDITYYADSVKGRFTISRDNSKNTLYLQMNSLRPEDTAVYYCAARPGRPLITSKVADLYPYWGQGTLVTVSSPP
RESULT: 14
